Source listed as paper PMC11509546.

- Test Target: Angiotensin-I converting enzyme (UniProt P12821)
- Sequence (P12821 30-1256): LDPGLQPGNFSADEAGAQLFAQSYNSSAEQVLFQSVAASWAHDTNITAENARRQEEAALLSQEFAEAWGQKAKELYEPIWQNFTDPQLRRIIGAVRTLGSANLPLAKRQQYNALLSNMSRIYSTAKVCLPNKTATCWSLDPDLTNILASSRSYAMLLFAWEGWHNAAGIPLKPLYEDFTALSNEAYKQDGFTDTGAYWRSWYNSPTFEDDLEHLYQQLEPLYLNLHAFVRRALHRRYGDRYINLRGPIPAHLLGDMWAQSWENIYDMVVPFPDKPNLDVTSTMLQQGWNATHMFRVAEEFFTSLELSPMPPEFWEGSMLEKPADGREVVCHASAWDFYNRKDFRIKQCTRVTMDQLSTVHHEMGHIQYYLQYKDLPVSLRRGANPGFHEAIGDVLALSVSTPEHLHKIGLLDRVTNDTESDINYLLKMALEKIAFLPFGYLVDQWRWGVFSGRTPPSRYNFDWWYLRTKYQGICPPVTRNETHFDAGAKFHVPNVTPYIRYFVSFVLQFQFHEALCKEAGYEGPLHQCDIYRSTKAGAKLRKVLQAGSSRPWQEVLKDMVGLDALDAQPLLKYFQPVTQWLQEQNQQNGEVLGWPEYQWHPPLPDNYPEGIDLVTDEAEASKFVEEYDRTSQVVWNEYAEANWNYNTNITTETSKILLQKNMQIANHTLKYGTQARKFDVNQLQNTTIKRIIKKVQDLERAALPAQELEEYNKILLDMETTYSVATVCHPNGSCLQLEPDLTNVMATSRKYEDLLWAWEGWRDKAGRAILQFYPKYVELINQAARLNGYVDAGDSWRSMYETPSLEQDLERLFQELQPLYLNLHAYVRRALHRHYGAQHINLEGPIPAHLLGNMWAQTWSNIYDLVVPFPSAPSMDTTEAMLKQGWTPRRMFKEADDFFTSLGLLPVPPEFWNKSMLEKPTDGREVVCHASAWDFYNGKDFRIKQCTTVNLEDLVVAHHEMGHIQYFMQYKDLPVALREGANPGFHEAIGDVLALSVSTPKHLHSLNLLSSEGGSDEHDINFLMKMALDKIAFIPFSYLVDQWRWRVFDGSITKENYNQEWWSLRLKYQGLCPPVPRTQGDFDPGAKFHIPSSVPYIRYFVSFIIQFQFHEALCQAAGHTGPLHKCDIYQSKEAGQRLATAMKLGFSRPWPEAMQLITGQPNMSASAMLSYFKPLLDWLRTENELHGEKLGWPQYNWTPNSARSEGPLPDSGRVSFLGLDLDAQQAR
Measured Attribute: ACE inhibitory activity IC50 (ACE kit-WST, colorimetric enzyme activity assay) (µg/mL)

Need ACE inhibitory activity IC50 (ACE kit-WST, colorimetric enzyme activity assay), item `NLGEW` 146

[P] QLQFPVGR
[Q] VTPGLQY
Quick one: lower ACE inhibitory activity IC50 (ACE kit-WST, colorimetric enzyme activity assay), P or Q ? Indicate which entry you chose by stating its label. P
(P: 4 µg/mL, Q: 23 µg/mL)
